# TARGET UNDER TEST: Sho1, P40073
# Sequence (P40073 287-367): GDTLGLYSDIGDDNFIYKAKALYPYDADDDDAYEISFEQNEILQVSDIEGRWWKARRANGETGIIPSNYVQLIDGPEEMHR
# EXPERIMENT SUMMARY: SPOT array
# STUDY CONDITIONS: median of control spots 1148
Parameter SPOT intensity: see the listing below.
PROPERTY NAME: SPOT intensity

>>> endpoint_result("DKSRPPRPPPKPLHL")
155
>>> endpoint_result("NFFRKKLGIPRKLKR")
107
>>> endpoint_result("RKQRSIPLSPIVPES")
49
>>> endpoint_result("RLPAPPPPPRRGPAP")
0
